# System: MDCK
# protocol-notes: Antiviral activity was determined against Influenza virus B(strain Singapore) MDCK cells by measuring concentration required to reduce virus induced cytopathogenicity by 50%.
# Type: functional, cell-based
# particulars: Canis lupus familiaris
Answer each item with its documented IC50.

Lookup: Fill in: IC50 on MDCK, entry O=C(O)c1cc(C(=CCC23CC4CC(CC(C4)C2)C3)c2cc(Cl)c(O)c(C(=O)O)c2)cc(Cl)c1O
Found: > 4 mg/L

Lookup: For MDCK, give the measured IC50 of the entry CC(CCC=C(c1cc(Cl)c(O)c(C(=O)O)c1)c1cc(Cl)c(O)c(C(=O)O)c1)[C@H]1CC[C@H]2[C@@H]3CC[C@@H]4CCCC[C@]4(C)[C@H]3CC[C@]12C (stereo not given in full)
Found: > 20 mg/L

Lookup: Using MDCK as the test system, report measured IC50 of CCCCCC=C(c1cc(Cl)c(O)c(C(=O)NO)c1)c1cc(Cl)c(O)c(C(=O)NO)c1 .
Found: > 4 µM

Lookup: State IC50 (MDCK) of CC(C)CCCC(C)[C@H]1CC[C@H]2[C@@H]3CCC4CC(=C(c5cc(Cl)c(O)c(C(=O)O)c5)c5cc(Cl)c(O)c(C(=O)O)c5)CC[C@]4(C)[C@H]3CC[C@]12C (stereo not given in full) .
Found: > 200 mg/L

Lookup: Lab note: record IC50 of CC(CCC=C(c1cc(Cl)c(O)c(C(=O)O)c1)c1cc(Cl)c(O)c(C(=O)O)c1)[C@H]1CC[C@H]2[C@@H]3CC[C@@H]4CC(F)(F)CC[C@]4(C)[C@H]3CC[C@]12C (stereo not given in full) tested on MDCK.
Found: > 12 mg/L

---

# System: HEL
# protocol-notes: Antiviral activity was determined against Vesicular stomatitis virus in HEL cells by measuring concentration required to reduce virus induced cytopathogenicity by 50%.
# Type: functional, cell-based
# particulars: Homo sapiens
Exercise: for every item that follows, state its recorded IC50.

Lookup: Assign IC50 to the following record: O=C(O)c1cc(C(=CCC23CC4CC(CC(C4)C2)C3)c2cc(Cl)c(O)c(C(=O)O)c2)cc(Cl)c1O
Found: > 5 µg/mL

Lookup: Please report the measured IC50 for CC(C)CCCC(C)[C@H]1CC[C@H]2[C@@H]3CCC4CC(=C(c5cc(Cl)c(O)c(C(=O)O)c5)c5cc(Cl)c(O)c(C(=O)O)c5)CC[C@]4(C)[C@H]3CC[C@]12C (stereo partly specified)
Found: > 20 µg/mL

Lookup: Given the molecule CC(CCC=C(c1cc(Cl)c(O)c(C(=O)O)c1)c1cc(Cl)c(O)c(C(=O)O)c1)[C@H]1CC[C@H]2[C@@H]3CC[C@@H]4CC(F)(F)CC[C@]4(C)[C@H]3CC[C@]12C (stereo partly specified) , write its reported IC50.
Found: > 20 µg/mL

Lookup: Identify the reported IC50 for the following entry. CC(C)CCCC(C)[C@H]1CC[C@H]2[C@@H]3CCC4C[C@@H](CCC=C(c5cc(Cl)c(O)c(C(=O)O)c5)c5cc(Cl)c(O)c(C(=O)O)c5)CC[C@]4(C)[C@H]3CC[C@]12C (stereo partly specified)
Found: 10 µg/mL

Lookup: Please look at this molecule and report its IC50: CC(CCC=C(c1cc(Cl)c(O)c(C(=O)O)c1)c1cc(Cl)c(O)c(C(=O)O)c1)[C@H]1CC[C@H]2[C@@H]3CC[C@@H]4CCCC[C@]4(C)[C@H]3CC[C@]12C (stereo partly specified)
Found: > 20 µg/mL

Lookup: Specify reported IC50 for the molecule shown: CCCCCC=C(c1cc(Cl)c(O)c(C(=O)NO)c1)c1cc(Cl)c(O)c(C(=O)NO)c1
Found: > 20 µM
